# Lookup of reported log10(AUC at 24 h) keyed by entry
measurement.notes: AUC ((0 to 24 hrs)) in Balb/c mouse at 10 mg/kg, po qd
protocol.conditions: plasma
All values: log10 AUC at 24 h [µM·h].

Here are 2 compounds together with their reported answers.
1. COc1ccc(-c2nc(COc3ccc(OCC(=O)O)c(C)c3)oc2-c2ccc(OC(F)(F)F)cc2)cn1
1.99
2. Cc1cc(OCc2nc(-c3ccc(OC(C)C)nc3)c(-c3ccc(OC(F)(F)F)cc3)o2)ccc1OCC(=O)O
1.98

Field log10(AUC at 24 h) (entry `Cc1cc(OCc2nc(-c3ccc(OC(C)C)nc3)c(-c3ccc(OC(F)(F)F)cc3)s2)ccc1OCC(=O)O` ) reads 1.80

Kindly note the recorded log10(AUC at 24 h) for `Cc1cc(OCc2nc(-c3ccc(OC(C)C)cc3)c(-c3ccc(C(F)(F)F)cc3)s2)ccc1OCC(=O)O` , which is 1.57

# log10(AUC at 24 h) (compound: `Cc1cc(OCc2nc(-c3ccc(OC4CCCC4)cc3)c(-c3ccc(OC(F)(F)F)cc3)s2)ccc1OCC(=O)O` ) is 1.21

In plain terms, `Cc1cc(OCc2nc(-c3cccnc3)c(-c3ccc(-c4ccccc4)cc3)o2)ccc1OCC(=O)O` has a documented log10(AUC at 24 h) of -0.09

The reported value for `Cc1cc(OCc2nc(-c3ccc(OC(C)C)cc3)c(-c3cccc(OC(F)(F)F)c3)s2)ccc1OCC(=O)O` in terms of log10(AUC at 24 h) is 1.31

So, `Cc1cc(OCc2nc(-c3cnc(OC(C)C)nc3)c(-c3ccc(OC(F)(F)F)cc3)s2)ccc1OCC(=O)O` ? Its log10(AUC at 24 h) was 1.30

Sure, the documented log10(AUC at 24 h) for `COc1ccc(-c2nc(COc3ccc(OCC(=O)O)c(C)c3)sc2-c2ccc(OC(F)(F)F)cc2)cn1` is 2.29

The recorded log10(AUC at 24 h) for `Cc1cc(OCc2nc(-c3ccc(OC4CCCC4)cc3)c(-c3ccc(OC(F)(F)F)cc3)o2)ccc1OCC(=O)O` is 1.37

Quick note, log10(AUC at 24 h) for `CCCc1ccc(-c2oc(COc3ccc(OCC(=O)O)c(C)c3)nc2-c2cnc(OC)nc2)cc1` landed at 0.81

Per the records, this compound ( `Cc1cc(OCc2nc(-c3ccc(OC(C)C)cc3)c(-c3ccc(OC(F)(F)F)cc3)o2)ccc1OCC(=O)O` ) has log10(AUC at 24 h) equal to 2.02

Item: `Cc1cc(SCc2sc(-c3ccc(C(F)(F)F)cc3)nc2C)ccc1OCC(=O)O` | log10(AUC at 24 h): 1.47

Recorded log10(AUC at 24 h) (compound `Cc1cc(OCc2nc(-c3ccc(OC(C)C)cc3)c(-c3ccc(OC(F)(F)F)cc3)s2)ccc1OCC(=O)O` ): 1.73

// log10(AUC at 24 h) lookup, compound = `Cc1cc(OCc2nc(-c3ccc(N4CCOCC4)cc3)c(-c3ccc(-c4ccccc4)cc3)s2)ccc1OCC(=O)O` , result: 1.50

Given item `Cc1cc(OCc2nc(-c3ccc(N4CCOCC4)nc3)c(-c3ccc(OC(F)(F)F)cc3)o2)ccc1OCC(=O)O` , the value recorded as its log10(AUC at 24 h) is 0.29
